valueKind: melting point

See these solved cases before continuing.
CN(C)C(=O)CNC(=O)c1ccc(-c2ccc3nnn(Cc4ccc5ncccc5c4)c3n2)cc1F	177 to 179 °C
OCCn1cc(-c2ccc3nnn(Cc4ccc(F)cc4)c3n2)cn1	204 to 206 °C

Exercise: // melting point lookup, key: Fc1ccc(-c2ccc3nnn(Cc4ccc5ncccc5c4)c3n2)cc1
Key: 153 to 156 °C

Exercise: // melting point lookup, key: COc1ccc(-c2ccc3nnn(Cc4ccc5ncccc5c4)c3n2)cc1F
Key: 187 to 190 °C

* * *

Entries and their melting point

See these solved cases before continuing.
Cn1cc(-c2ccc3ncn(Cc4ccc5ncccc5c4)c3n2)cn1	150 to 152 °C
CN(C)CCCOc1ccc(-c2ccc3nnn(Cc4ccc5ncccc5c4)c3n2)cc1F	102 to 105 °C
COc1ncc(-c2ccc3nnn(Cc4ccc5ncccc5c4)c3n2)cn1	201 to 203 °C
CCNC(=O)c1ccc(-c2ccc3nnn(C(C)(C)c4ccc5ncccc5c4)c3n2)cc1F	132 to 135 °C
FC(F)(F)Oc1cccc(-c2ccc3nnn(Cc4ccc5ncccc5c4)c3n2)c1	140 to 142 °C
CCCNC(=O)c1ccc(-c2ccc3nnn(C(C)(C)c4ccc5ncccc5c4)c3n2)cc1F	162 to 164 °C

Continue with the next compound.
Exercise: // melting point lookup, key: O=C(NCC1CC1)c1ccc(-c2ccc3nnn(Cc4ccc5ncccc5c4)c3n2)cc1F
Key: 120 to 122 °C

* * *

Entries and their GI50
- System: MKN-45 cells
- protocolText: Inhibition of MKN-45 proliferation (MTT)
- Assay type: cell-based, human
- conditionDescription: Homo sapiens, MKN-45, MKN-45 proliferation

O=C(NCCN1CCCC1)c1ccc(-c2ccc3nnn(Cc4ccc5ncccc5c4)c3n2)cc1	≤ 50 nM
c1cncc(-c2ccc3nnn(Cc4ccc5ncccc5c4)c3n2)c1	< 1000 nM
CCNC(=O)c1ccc(-c2ccc3nnn(Cc4ccc5ncccc5c4)c3n2)cc1F	≤ 50 nM

Exercise: I'm curious: which GI50 was measured for O=C(NC1CC1)c1ccc(-c2ccc3nnn(Cc4ccc5ncccc5c4)c3n2)cc1F tested on MKN-45 cells?
Key: ≤ 50 nM

Exercise: I'm curious: which GI50 was measured for CC(C)(O)c1ccc(-c2ccc3nnn(Cc4ccc5ncccc5c4)c3n2)cc1F tested on MKN-45 cells?
Key: 150 to 500 nM

Exercise: I'm curious: which GI50 was measured for Cc1n[nH]c2ccc(-c3ccc4nnn(Cc5ccc6ncccc6c5)c4n3)cc12 tested on MKN-45 cells?
Key: < 1000 nM

Exercise: I'm curious: which GI50 was measured for Cc1n[nH]c2cc(-c3ccc4nnn(Cc5ccc6ncccc6c5)c4n3)ccc12 tested on MKN-45 cells?
Key: 150 to 500 nM

Exercise: I'm curious: which GI50 was measured for OCc1ccc(-c2ccc3nnn(Cc4ccc5ncccc5c4)c3n2)cc1F tested on MKN-45 cells?
Key: ≤ 50 nM

Exercise: I'm curious: which GI50 was measured for CNC(=O)c1ccc(-c2ccc3nnn(Cc4ccc5ncccc5c4)c3n2)cc1 tested on MKN-45 cells?
Key: 50 to 150 nM

* * *

Entries and their melting point

Exercise: // melting point lookup, key: FC(F)Oc1cccc(-c2ccc3nnn(Cc4ccc5ncccc5c4)c3n2)c1
Key: 122 to 125 °C

Exercise: // melting point lookup, key: CC(C)COc1ccc(-c2ccc3nnn(Cc4ccc5ncccc5c4)c3n2)cc1F
Key: 115 to 157 °C

Exercise: // melting point lookup, key: CNC(=O)c1ccc(-c2ccc3nnn(C(C)(C)c4ccc5ncccc5c4)c3n2)cc1F
Key: 171 to 173 °C

Exercise: // melting point lookup, key: Cl.Fc1ccc(F)c(Cn2nnc3ccc(-c4cnn(C5CCNCC5)c4)nc32)c1Cl
Key: 85 to 87 °C

* * *

valueKind: melting point

O[C@@H]1CCN(c2ccc3nnn(Cc4ccc5ncccc5c4)c3n2)C1	167 to 169 °C
CC(=O)Nc1cccc(-c2ccc3nnn(Cc4ccc5ncccc5c4)c3n2)c1	198 to 201 °C
Fc1cc(-c2ccc3nnn(Cc4ccc5ncccc5c4)c3n2)ccc1OCC1CC1	160 to 162 °C
CC(C)Cn1cc(-c2ccc3nnn(Cc4ccc5ncccc5c4)c3n2)cn1	160 to 163 °C

Exercise: // melting point lookup, key: O=C(O)CNC(=O)c1ccc(-c2ccc3nnn(Cc4ccc5ncccc5c4)c3n2)cc1F
Key: 252 to 254 °C

Exercise: // melting point lookup, key: O=C(NCc1ccccc1)c1ccc(-c2ccc3nnn(Cc4ccc5ncccc5c4)c3n2)cc1F
Key: 163 to 165 °C

Exercise: // melting point lookup, key: COc1cccc(-c2ccc3nnn(Cc4ccc5ncccc5c4)c3n2)c1
Key: 133 to 135 °C

Exercise: // melting point lookup, key: FC(F)(F)COc1cccc(-c2ccc3nnn(Cc4ccc5ncccc5c4)c3n2)c1
Key: 151 to 154 °C

* * *

valueKind: melting point

See these solved cases before continuing.
CCCn1cc(-c2ccc3nnn(Cc4ccc5ncccc5c4)c3n2)cn1	128 to 130 °C
CC(C)CNC(=O)c1ccc(-c2ccc3nnn(Cc4ccc5ncccc5c4)c3n2)cc1F	158 to 160 °C
Fc1cc(-c2ccc3nnn(Cc4ccc5ncccc5c4)c3n2)ccc1OC1CCOCC1	165 to 167 °C
O=C(NC1CC1)c1ccc(-c2ccc3nnn(Cc4ccc5ncccc5c4)c3n2)cc1Cl	197 to 199 °C
CCNC(=O)Nc1ccc(-c2ccc3nnn(Cc4ccc5ncccc5c4)c3n2)cc1	193 to 196 °C
COCCNC(=O)c1ccc(-c2ccc3nnn(Cc4ccc5ncccc5c4)c3n2)cc1F	162 to 164 °C

Exercise: // melting point lookup, key: O=C(NCCCN1CCCCC1)c1ccc(-c2ccc3nnn(Cc4ccc5ncccc5c4)c3n2)cc1F
Key: 135 to 137 °C

* * *

Entries and their melting point

See these solved cases before continuing.
CC(C)NS(=O)(=O)c1ccc(-c2ccc3nnn(Cc4ccc5ncccc5c4)c3n2)cc1	154 to 156 °C
O=C(NCCC(=O)N1CCOCC1)c1ccc(-c2ccc3nnn(Cc4ccc5ncccc5c4)c3n2)cc1F	212 to 215 °C
C=CCNC(=O)c1ccc(-c2ccc3nnn(Cc4ccc5ncccc5c4)c3n2)cc1F	162 to 164 °C
NC(=O)c1ccc(-c2ccc3nnn(Cc4ccc5ncccc5c4)c3n2)cc1Cl	212 to 215 °C
CCCNC(=O)c1ccc(-c2ccc3nnn(Cc4ccc5ncccc5c4)c3n2)cc1Cl	128 to 130 °C
c1cnc2ccc(Cn3nnc4ccc(-c5ccc6c(c5)CCO6)nc43)cc2c1	131 to 133 °C

Exercise: // melting point lookup, key: O=C(NCC(F)(F)F)c1ccc(-c2ccc3nnn(Cc4ccc5ncccc5c4)c3n2)cc1F
Key: 194 to 196 °C

Exercise: // melting point lookup, key: CN(C)C(=O)c1ccc(-c2ccc3nnn(Cc4ccc5ncccc5c4)c3n2)cc1F
Key: 163 to 165 °C

Exercise: // melting point lookup, key: CONC(=O)c1ccc(-c2ccc3nnn(Cc4ccc5ncccc5c4)c3n2)cc1F
Key: 197 to 199 °C

Exercise: // melting point lookup, key: OCCn1cc(-c2ccc3nnn(Cc4c(F)ccc(F)c4Cl)c3n2)cn1
Key: 143 to 145 °C

* * *

Entries and their melting point

See these solved cases before continuing.
Cl.O=C(NC1CC1)c1ccc(-c2ccc3nnn(Cc4ccc5ncccc5c4)c3n2)cc1F [Ex 89]	105 to 107 °C
Nc1ccc(-c2ccc3nnn(Cc4ccc5ncccc5c4)c3n2)cc1 [Ex 64]	190 to 193 °C
Nc1ccc(-c2ccc3nnn(Cc4ccc5ncccc5c4)c3n2)cn1 [Ex 186]	194 to 197 °C

Exercise: // melting point lookup, key: COc1ccc(-c2ccc3nnn(Cc4ccc5ncccc5c4)c3n2)cc1OC [Ex 65]
Key: 149 to 152 °C

Exercise: // melting point lookup, key: CON(C)C(=O)c1ccc(-c2ccc3nnn(Cc4ccc5ncccc5c4)c3n2)cc1F.Cl [Ex 59]
Key: 201 to 202 °C

Exercise: // melting point lookup, key: O=C(NC1CCCCC1)c1ccc(-c2ccc3nnn(Cc4ccc5ncccc5c4)c3n2)cc1F [Ex 45]
Key: 172 to 175 °C

Exercise: // melting point lookup, key: O=C(Nc1nccs1)c1ccc(-c2ccc3nnn(Cc4ccc5ncccc5c4)c3n2)cc1F [Ex 111]
Key: 204 to 206 °C

Exercise: // melting point lookup, key: OCc1ccc(-c2ccc3nnn(Cc4ccc5ncccc5c4)c3n2)cc1 [Ex 6]
Key: 187 to 189 °C
